Hi there, I'd appreciate the recorded TCF/Wnt firefly luciferase reporter signal for every entry that follows.
- System: SW480
- assay_details: TCF/Wnt firefly luciferase reporter signal relative to plate median (fraction of plate median); higher = higher Wnt reporter signal
- recorded_conditions: 5 µM; treatment time 24 h; reporter: 7TFP
Numbers only.

Field: example entries. Status: answers known.
Notebook: COc1cc2c(cc1OC)C1(O)C(=O)c3ccc(O)c(C(=O)O)c3OC1CO2 (stereo unspecified) , TCF/Wnt firefly luciferase reporter signal read as 0.984

Notebook: Cc1cc(C2CCCCC2)n(O)c(=O)c1 , TCF/Wnt firefly luciferase reporter signal read as 1

// each listed compound needs a value for TCF/Wnt firefly luciferase reporter signal
1. CC(C)NCC(O)COc1cccc2ccccc12 (stereo unspecified)
2. O=C1NC(Cc2ccc(O)cc2)C(=O)NC1Cc1ccc(O)cc1 (stereo unspecified)
3. O=C(O)C(S)C(S)C(=O)O (stereo unspecified)
4. CC(C)Cn1c(=O)n(C)c(=O)c2nc[nH]c21

1: 0.994; 2: 0.98; 3: 1; 4: 0.987

# credit: the supplement of paper PMC6522484
